Here, each record is paired with measured IC50 data.
# Tested on: MCF7
# METHOD_SUMMARY: Cytotoxicity against human MCF7 cells after 72 hrs by resazurin-based colorimetric assay
# Format: functional, cell-based
# STATED_CONDITIONS: MCF7, 72 h
QUANTITY_KIND: IC50

CC(=O)OC[C@]12CC[C@H]3[C@@H](CC=C4CC=CC(=O)[C@@]43C)[C@]1(O)[C@@H](O)C[C@@]2(O)[C@@](C)(O)[C@H]1CC(C)=C(C)C(=O)O1 ... > 2500 nM
CC(=O)OC[C@]12CC[C@H]3[C@@H](CC=C4C[C@@H](OS(=O)(=O)O)CC(=O)[C@@]43C)[C@]1(O)[C@@H](OC(C)=O)C[C@@]2(O)[C@@](C)(O)[C@H]1CC(C)=C(C)C(=O)O1 ... > 5000 nM
CC(=O)OC[C@]12CC[C@H]3[C@@H](C[C@H]4O[C@]45CC=CC(=O)[C@]35C)[C@]1(O)[C@@H](OC(C)=O)C[C@@]2(O)[C@@](C)(O)[C@H]1CC(C)=C(C)C(=O)O1 ... > 2500 nM
CC(=O)OC[C@]12CC[C@H]3[C@@H](CC=C4C[C@@H](OS(=O)(=O)O)CC(=O)[C@@]43C)[C@]1(O)CC[C@@]2(O)[C@@](C)(O)[C@H]1CC(C)=C(C)C(=O)O1 ... 2200 nM
COc1cccc2c1C(=O)c1c(O)c3c(c(O)c1C2=O)C[C@@](O)(C(=O)CO)C[C@@H]3O[C@H]1C[C@H](N)[C@H](O)[C@H](C)O1 ... 320 nM
CC(=O)OC[C@]12CC[C@H]3[C@@H](CC=C4CC=CC(=O)[C@@]43C)[C@]1(O)CC[C@@]2(O)[C@@](C)(O)[C@H]1CC(C)=C(CO)C(=O)O1 ... > 5000 nM

---

# System: NCI-H460
# METHOD_SUMMARY: Cytotoxicity against human NCI-H460 cells up to 5 uM after 72 hrs by resazurin-based colorimetric assay
# Format: functional, cell-based
The source made the active and inactive calls. The rule behind the calls is not given here.
QUANTITY_KIND: Activity

CC1=C(C)C(=O)O[C@@H]([C@](C)(O)[C@H]2CC[C@@]3(O)[C@@H]4[C@@H]5O[C@@H]5[C@@]5(O)CC=CC(=O)[C@]5(C)[C@H]4CC[C@]23C)C1 ... inactive
C/C(=C1/C(=O)C[C@H]2[C@@H]3[C@@H]4O[C@@H]4[C@@]4(O)CC=CC(=O)[C@]4(C)[C@H]3CC[C@]12C)[C@H]1C[C@]2(C)O[C@]2(C)[C@H](O)O1 ... inactive
CC(=O)OC[C@]12CC[C@H]3[C@@H](CC=C4CC=CC(=O)[C@@]43C)[C@]1(O)[C@@H](OC(C)=O)C[C@@]2(O)[C@@](C)(O)[C@H]1CC(C)=C(CO)C(=O)O1 ... inactive

---

# Test system: NCI-H460
# METHOD_SUMMARY: Cytotoxicity against human NCI-H460 cells after 72 hrs by resazurin-based colorimetric assay
# Type: functional, cell-based
# STATED_CONDITIONS: NCI-H460, 72 h
QUANTITY_KIND: IC50

CC(=O)OC[C@]12CC[C@H]3[C@@H](CC=C4C[C@@H](OS(=O)(=O)O)CC(=O)[C@@]43C)[C@]1(O)CC[C@@]2(O)[C@@](C)(O)[C@H]1CC(C)=C(C)C(=O)O1 ... 3800 nM
CC1=C(CO)C(=O)O[C@@H]([C@@H](C)[C@H]2CC[C@H]3[C@@H]4C[C@H]5O[C@]56[C@@H](O)C=CC(=O)[C@]6(C)[C@H]4CC[C@]23C)C1 ... < 400 nM
CC(=O)OC[C@]12CC[C@H]3[C@@H](C[C@H]4O[C@]45CC=CC(=O)[C@]35C)[C@]1(O)[C@@H](OC(C)=O)C[C@@]2(O)[C@@](C)(O)[C@H]1CC(C)=C(C)C(=O)O1 ... > 2500 nM
CC(=O)OC[C@]12CC[C@H]3[C@@H](CC=C4CC=CC(=O)[C@@]43C)[C@]1(O)[C@@H](O)C[C@@]2(O)[C@@](C)(O)[C@H]1CC(C)=C(C)C(=O)O1 ... > 2500 nM
CC(=O)OC[C@]12CC[C@H]3[C@@H](CC=C4C[C@@H](OS(=O)(=O)O)CC(=O)[C@@]43C)[C@]1(O)[C@@H](OC(C)=O)C[C@@]2(O)[C@@](C)(O)[C@H]1CC(C)=C(C)C(=O)O1 ... 2500 nM
CC(=O)OC[C@]12CC[C@H]3[C@@H](CC=C4CC=CC(=O)[C@@]43C)[C@]1(O)CC[C@@]2(O)[C@@](C)(O)[C@H]1CC(C)=C(CO)C(=O)O1 ... > 5000 nM
